- test summary: recombinant UMI read abundance after kanamycin selection (control-corrected) (log10(CPM+1)); higher = more efficient recombination; extreme values may be limits of the assay; sequences stand for … in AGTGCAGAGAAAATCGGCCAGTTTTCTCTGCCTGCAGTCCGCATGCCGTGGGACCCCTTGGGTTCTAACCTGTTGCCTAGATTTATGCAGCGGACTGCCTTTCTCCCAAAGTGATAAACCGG…AGGTTGGTTTCACT; site = the 11-nt donor;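 note: IS621 bridge recombinase in Escherichia coli cells against a fixed T5 target plasmid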
Please enter yes (1) where recombinant UMI read abundance (log10) is greater than or equal to 0.06, and no (0) where it is lower.

> print(dat)
                              sequence.text  class.assignment
1  AGCCTCGCATGGACCGGTTTTCCCGGTAATCCGTATTTGTT (site AGCCTCGCTAA)           yes (1)
2  GCGGAGGCATGGACCGGTTTTCCCGGTAATCCGTATTTGAA (site GCGGAGGCTTT)           yes (1)
3  CGTTAGACATGGACCGGTTTTCCCGGTAATCCGTATTTGAG (site CGATAGACTCT)           yes (1)
4  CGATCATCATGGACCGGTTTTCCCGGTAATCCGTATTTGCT (site CGATCAGCTAA)            no (0)
5  TCCAATTCATGGACCGGTTTTCCCGGTAATCCGTATTTGCG (site TCCAATTCTAG)            no (0)
6  TAGATTACATGGACCGGTTTTCCCGGTAATCCGTATTTGCA (site TAGAATACTTG)           yes (1)
7  TAAAGTCCATGGACCGGTTTTCCCGGTAATCCGTATTTGTA (site TAAAGTCCTTC)            no (0)
8  GTACGCACATGGACCGGTTTTCCCGGTAATCCGTATTTGTA (site GTATGCACTTA)           yes (1)
9  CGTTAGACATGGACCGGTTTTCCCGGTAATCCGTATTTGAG (site TGTTAGACTCT)            no (0)
